# protocol-notes: AUC (0 to 24 hrs) in Sprague-Dawley rat in fasted state at 3 mg/kg, po
# Format: ADME, organism-based
# Set-up: time < 24 hr, dose 3 mg/kg, route oral
# condition-set: plasma
recorded-endpoint: AUC(0-t) at 24 h
Hi, when you answer, please include the unit after the number. Thanks!

Just so you know, measured AUC(0-t) at 24 h for "Cc1ncc2n1C(=O)N(C1CCN(C(=O)CCS(=O)(=O)c3ccc4cc(Cl)ccc4c3)CC1)C2" came out at 417 ng·h/mL

----------
# protocol-notes: Cmax in Sprague-Dawley rat in fasted state at 3 mg/kg, po
# Assay type: ADME, organism-based
# Set-up: dose 3 mg/kg, route oral
# condition-set: in vivo
recorded-endpoint: Cmax (ng/mL)
I only need the number, in ng/mL, no unit after it.

Just so you know, measured Cmax for "Cc1ncc2n1C(=O)N(C1CCN(C(=O)CCS(=O)(=O)c3ccc4cc(Cl)ccc4c3)CC1)C2" came out at 570

These data points were gathered from ChEMBL document CHEMBL1150763.
